- target under test: NaCT/SLC13A5 (Homo sapiens, UniProt Q86YT5)
- Sequence (Q86YT5 whole entry): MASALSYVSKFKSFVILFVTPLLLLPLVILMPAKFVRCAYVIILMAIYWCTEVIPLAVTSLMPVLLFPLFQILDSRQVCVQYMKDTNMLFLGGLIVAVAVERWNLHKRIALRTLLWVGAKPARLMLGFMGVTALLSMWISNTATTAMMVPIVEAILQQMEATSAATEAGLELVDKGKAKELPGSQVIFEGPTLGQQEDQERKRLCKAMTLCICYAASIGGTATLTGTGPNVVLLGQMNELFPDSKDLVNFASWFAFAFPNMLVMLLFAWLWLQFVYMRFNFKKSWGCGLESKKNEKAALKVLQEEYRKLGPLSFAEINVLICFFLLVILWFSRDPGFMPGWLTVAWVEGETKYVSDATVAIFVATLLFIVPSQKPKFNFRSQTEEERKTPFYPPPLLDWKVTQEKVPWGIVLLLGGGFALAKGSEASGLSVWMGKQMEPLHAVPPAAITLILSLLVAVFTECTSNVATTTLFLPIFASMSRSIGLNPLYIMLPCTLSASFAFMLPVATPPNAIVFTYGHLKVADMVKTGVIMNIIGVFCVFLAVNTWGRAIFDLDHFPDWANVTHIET
- assay: [14C]-citrate uptake in HEK293FT cells with ectopic expression of human SLC13A5
- Type: cell-based
measured metric: IC50 (nM)
Answers are plain numbers, in nM.

Entry under review: O=C(NCc1ccc(F)cc1)C1CCN(S(=O)(=O)c2cc(Cl)cc(Cl)c2)CC1 . Reported IC50? 171

Data provenance is paper PMC7657661.
